B1: Pistol ribozyme (parent)
chain: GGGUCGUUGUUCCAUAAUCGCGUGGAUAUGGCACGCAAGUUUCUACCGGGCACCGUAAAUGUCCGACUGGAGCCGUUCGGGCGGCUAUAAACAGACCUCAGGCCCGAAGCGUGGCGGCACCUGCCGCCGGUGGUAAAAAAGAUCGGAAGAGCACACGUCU

variants of: B1; experiment: aptazyme ON/OFF ratio, guanine; higher = stronger switching; co-transcriptional cleavage with and without guanine
readout_kind: aptazyme ON/OFF ratio
// no unit string in output, number only

| mutant_designation | aptazyme ON/OFF ratio |
| --- | --- |
| U7C U8C U11A C12G C13U | 1.12 |
| U8G U10C U11C C12U | 1.17 |
| U8C G9U U10G U11A C12A C13U | 1.72 |

Ask: Which aptazyme ON/OFF ratio value belongs to U7C U10G C13G ?
Reply: 1.16

Ask: Which value of aptazyme ON/OFF ratio has been reported for U7G U8C U10G U11G C12A C13A in the records?
Reply: 1.09

Reference for the values: the RNAGym collection of RNA variant scans (doi:10.1021/acssynbio.7b00057)
